- Protocol notes: Inhibition of rat microsomal SOAT assessed as reduction in cholesteryl oleate formation from oleoyl co-enzyme A pretreated for 15 mins followed by oleoyl co-enzyme A addition after 10 mins by HPTLC method
Exercise: for every item that follows, state its recorded pIC50.
Give bare numbers, as −log10 of the molar value.

Solved cases below.
# input Let me know recorded pIC50 for CCCCCCCCCCCCNC(=O)Nc1ccc(-c2sc(C)nc2-c2ccc(F)cc2)cc1 , thanks.
# output 4.31

# input Let me know recorded pIC50 for CCc1cccc(CC)c1NC(=O)Nc1ccc(-c2sc(C)nc2-c2ccc(C)cc2)cc1 , thanks.
# output 4.51

# input Let me know recorded pIC50 for O=C(Nc1ccccc1)Nc1nc(-c2ccccc2)c(-c2ccccc2)s1 , thanks.
# output 4.75

# input Let me know recorded pIC50 for CCCCCCCNC(=O)Nc1nc(-c2ccc(OC)cc2)c(-c2ccc(Cl)cc2)s1 , thanks.
# output 4.67

# input Let me know recorded pIC50 for CCCCCCCCCCCCNC(=O)Nc1ccc(-c2sc(C)nc2-c2ccc(C)cc2)cc1 , thanks.
# output 4.91

# input Let me know recorded pIC50 for CCc1cccc(CC)c1NC(=O)Nc1ccc(-c2nonc2-c2ccc(F)cc2)cc1 , thanks.
# output 5.01

# input Let me know recorded pIC50 for COc1ccc(-c2nc(NC(=O)Nc3ccc(F)cc3F)sc2-c2ccc(NS(C)(=O)=O)cc2)cc1 , thanks.
# output 4.72

# input Let me know recorded pIC50 for CCc1cccc(CC)c1NC(=O)Nc1ccc(-c2sc(C)nc2-c2ccc(Cl)cc2)cc1 , thanks.
# output 5.39

Switching to the query record.
# input Let me know recorded pIC50 for COc1cc(NC(=O)Nc2ccc(-c3sc(C)nc3-c3ccc(F)cc3)cc2)cc(OC)c1OC , thanks.
# output 4.90
